Values compiled from patent US7964616B2.

readout label: melting point

So, `C[C@H]1CCC[C@@](O)(CNC(=O)c2c(Cl)ccc3nc(N4CCC(O)CC4)ccc23)C1` ? Its melting point was 120 °C (dec.)

So, `C[C@H]1CCC[C@@](O)(CNC(=O)c2c(Cl)ccc3nc(N4CC[C@H](O)C4)ccc23)C1` ? Its melting point was 222 °C

So, C[C@H]1CCC[C@@](O)(CNC(=O)c2c(Cl)ccc3nc(N4CCC(C)(O)C4)ccc23)C1 (stereo partly shown) ? Its melting point was 195 to 200 °C (dec.)

So, `C[C@H]1CCC[C@@](O)(CNC(=O)c2c(Cl)ccc3nc(N4CC[C@@H](O)C4)ccc23)C1` ? Its melting point was 222 to 223 °C
